Biological target: T1, HMO1 (Saccharomyces cerevisiae, UniProt Q03973 1-246)
T1 sequence: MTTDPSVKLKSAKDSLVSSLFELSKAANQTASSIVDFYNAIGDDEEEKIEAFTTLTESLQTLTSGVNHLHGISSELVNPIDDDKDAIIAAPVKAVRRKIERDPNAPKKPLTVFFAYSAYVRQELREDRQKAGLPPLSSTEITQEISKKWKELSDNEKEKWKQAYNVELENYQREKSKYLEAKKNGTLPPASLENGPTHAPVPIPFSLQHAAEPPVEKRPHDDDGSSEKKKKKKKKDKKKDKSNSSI
Test: EMSA; apparent Kd from Hill fit of free DNA; 6 nM DNA; EMSA: 17 mM HEPES pH 7.6, 2 mM Tris-HCl, 0.8 mM Na3EDTA, 0.11 mM 2-mercaptoethanol, 11 mM NaCl, 1.1% glycerol, 12% sucrose; 6 nM DNA, 10-800 nM HMO1, 30 min at
Settings: protein: recombinant; tags: N-terminal His6 (pET15b); label: 5'-Cy3 on strand 2 (S6); blunt
recorded.metric: Kd (nM)
Record the value in nM, omitting the unit from your answer.

Quick one: Kd of SO duplex (IFHL site) (dsDNA) DNA 1: ACTACGCTCTAGGCAGAGTTCACC DNA 2: GGTGAACTCTGCCTAGAGCGTAGT ?
62
